experimental.system: HLA-B*35:01 (Homo sapiens, UniProt P01889, A329T/A93T/A95T/C349S/D201E/D98Y/E176V/E187L/E204Q/E69T/I218V/K202T/L119I/Q94N/R155S/R180L/S121R/S35A/S48A/T118I/V127L/V306I/V36M/Y140S/Y91F)
assay.details: HLA class I binding assay
Ends that are not written are not given here.
measured.endpoint: IC50 (nM)

- QGFPWDILF [HDV192–200]: 118

====

experimental.system: HLA-B*58:01 (Homo sapiens, UniProt P01889, A329T/C349S/D201E/D98Y/E176V/E187L/E204Q/E69T/G107R/I218V/I90N/K202T/L105A/L119I/N104I/N87E/Q89R/Q94S/R106L/R155S/R180L/R86G/S101N/S121R/S35A/S48A/T118I/V127L/V306I/V36M/Y140S/Y91M)
assay.details: HLA class I binding assay
Ends that are not written are not given here.
measured.endpoint: IC50

* RGSQGFPW [HDV189–196] | 14 nM

====

experimental.system: HLA-B*27:05 (Homo sapiens, UniProt P01889, D138H/D201E/E176V/E204Q/G107R/H137Y/K202T/N104T/N87E/Q56L/Q94K/R106L/R155S/R180L/S101D/S121N/S48T/Y140D/Y33H/Y91C)
assay.details: HLA class I binding assay
Ends that are not written are not given here.
measured.endpoint: IC50 (nM)

- RRKALENKR [HDV104–112]: 109

====

experimental.system: HLA-B*35:01 (Homo sapiens, UniProt P01889, A329T/A93T/A95T/C349S/D201E/D98Y/E176V/E187L/E204Q/E69T/I218V/K202T/L119I/Q94N/R155S/R180L/S121R/S35A/S48A/T118I/V127L/V306I/V36M/Y140S/Y91F)
assay.details: HLA class I binding assay
test.conditions: HLA-B*35:01; Fig. 6D
measured.endpoint: HLA binding of autologous sequence compared with prototype sequence

- FPWDLLFPA: preserved HLA binding
- FPWDMLFPA: preserved HLA binding
- QGFPWDLLF: preserved HLA binding

====

experimental.system: HLA-B*18:01 (Homo sapiens, UniProt P01889, A329T/A93T/A95T/C349S/D201E/D54G/D98Y/E176V/E187T/E204Q/E69T/K202T/Q94N/R155S/R180L/S121R/V306I/Y140S/Y195H/Y33H/Y91S)
assay.details: HLA class I binding assay
Ends that are not written are not given here.
measured.endpoint: IC50

- DENPWLGNI [HDV46–54]: 149 nM

====

experimental.system: HLA-B*52:01 (Homo sapiens, UniProt P01889, A329T/A93T/A95T/C349S/D138N/D201E/D98Y/E187L/E204Q/E69T/G107R/I218V/K202T/L105A/L119W/N104I/N87E/Q94N/R106L/R155S/R180L/S101N/S121T/S35A/S48A/V306I/V36M/Y195H/Y91S)
assay.details: HLA class I binding assay
pIC50: −log10 of the molar value. Ends that are not written are not given here.
measured.endpoint: pIC50

* QGFPWDILF [HDV192–200] | 7.74
